Target: HLA-B*5301 (Homo sapiens, UniProt P01889, A329T/A93T/A95T/C349S/D201E/D98Y/E176V/E187L/E204Q/E69T/G107R/I218V/K202T/L105A/L119I/N104I/Q94N/R106L/R155S/R180L/S101N/S121R/S35A/S48A/T118I/V127L/V306I/V36M/Y140S/Y91F)
Assay: Purified HLA class I peptide binding assay, B*5301
Conditions: binding affinity, HLA-B7 supermotif-bearing peptides
pIC50: −log10 of the molar value. Residues, ends and D or L forms follow the SMILES beside them.
attribute measured: pIC50

compound=CC[C@H](C)[C@H](NC(=O)[C@H](Cc1ccccc1)NC(=O)[C@@H](NC(=O)[C@H](Cc1ccc(O)cc1)NC(=O)[C@H](CC(C)C)NC(=O)[C@H](Cc1c[nH]cn1)NC(=O)CNC(=O)[C@@H](NC(=O)[C@@H]1CCCN1C(=O)[C@@H](N)Cc1ccccc1)[C@@H](C)CC)[C@@H](C)CC)C(=O)O reported_result=8.07
compound=CC[C@H](C)[C@H](NC(=O)[C@H](CC(C)C)NC(=O)[C@@H](NC(=O)[C@H](Cc1ccc(O)cc1)NC(=O)[C@H](CC(C)C)NC(=O)[C@H](Cc1c[nH]cn1)NC(=O)[C@H](CO)NC(=O)[C@@H](NC(=O)[C@@H]1CCCN1C(=O)[C@@H](N)Cc1ccccc1)[C@@H](C)CC)[C@@H](C)CC)C(=O)O reported_result=8.31
compound=CC[C@H](C)[C@H](NC(=O)[C@H](CO)NC(=O)[C@H](CCC(N)=O)NC(=O)[C@H](CO)NC(=O)[C@H](Cc1c[nH]c2ccccc12)NC(=O)[C@H](CC(C)C)NC(=O)[C@@H]1CCCN1C(=O)[C@@H](N)Cc1ccccc1)C(=O)O reported_result=6.61
compound="CC[C@H](C)[C@H](NC(=O)[C@H](Cc1ccc(O)cc1)NC(=O)[C@H](CC(C)C)NC(=O)[C@H](Cc1c[nH]cn1)NC(=O)CNC(=O)[C@@H](NC(=O)[C@@H]1CCCN1C(=O)[C@@H](N)Cc1ccccc1)[C@@H](C)CC)C(=O)N[C@@H](Cc1ccccc1)C(=O)N[C@@H](C)C(=O)O (H-FPIGHLYIFA-OH; N-terminus and C-terminus assumed)" reported_result=6.75
compound=CC[C@H](C)[C@H](NC(=O)[C@H](Cc1c[nH]cn1)NC(=O)[C@@H]1CCCN1C(=O)[C@@H](N)Cc1ccccc1)C(=O)N[C@@H](CO)C(=O)N[C@@H](Cc1ccc(O)cc1)C(=O)N1CCC[C@H]1C(=O)N1CCC[C@H]1C(=O)N[C@@H](CC(C)C)C(=O)O reported_result=6.31
compound=CC[C@H](C)[C@H](NC(=O)[C@H](CC(C)C)NC(=O)[C@H](C)NC(=O)[C@H](CCCNC(=N)N)NC(=O)[C@@H]1CCCN1C(=O)[C@@H](N)Cc1ccccc1)C(=O)N[C@@H](CCC(=O)O)C(=O)N[C@H](C(=O)N[C@@H](CO)C(=O)N[C@@H](Cc1ccc(O)cc1)C(=O)N[C@H](C(=O)O)C(C)C)[C@@H](C)O reported_result=5.11
compound="CSCC[C@H](NC(=O)[C@@H](NC(=O)[C@@H](NC(=O)[C@@H]1CCCN1C(=O)[C@@H](N)Cc1ccccc1)[C@@H](C)O)[C@@H](C)O)C(=O)N[C@@H](CC(N)=O)C(=O)N[C@@H](Cc1ccc(O)cc1)C(=O)N1CCC[C@H]1C(=O)N[C@@H](CC(C)C)C(=O)O (H-FPTTMNYPL-OH; N-terminus and C-terminus assumed)" reported_result=7.41
compound=CC[C@H](C)[C@H](NC(=O)[C@@H](NC(=O)[C@H](CC(C)C)NC(=O)[C@H](CC(C)C)NC(=O)CNC(=O)[C@@H](NC(=O)[C@H](CCCCN)NC(=O)[C@@H]1CCCN1C(=O)[C@@H](N)Cc1ccccc1)[C@@H](C)O)[C@@H](C)CC)C(=O)O reported_result=6.58
compound=CC[C@H](C)[C@H](NC(=O)[C@H](CC(C)C)NC(=O)[C@H](CC(C)C)NC(=O)CNC(=O)[C@@H](NC(=O)[C@H](CCCCN)NC(=O)[C@@H]1CCCN1C(=O)[C@@H](N)Cc1ccccc1)[C@@H](C)O)C(=O)O reported_result=5.48

Data provenance is patent US20040053822A1.
